tested on: E. cloacae 13047; experiment: Minimal inhibitory concentration, E. cloacae 13047; assay type: cell-based; details: Enterobacter cloacae, 13047; 16 hour minimal inhibitory concentration at 37° C.; read-out: MIC (μM) E. cloacae 13047
Exercise: for every item that follows, state its recorded MIC.

COc1ccc(C(=O)Nc2c(O)c3ccc(O[C@@H]4OC(C)(C)[C@H](OC)[C@@H](OC(N)=O)[C@H]4O)c(C)c3oc2=O)cc1Oc1ccccc1 [Compound 256] yielded MIC of > 100 µM

C#Cc1cccc(C(=O)Nc2c(O)c3ccc(O[C@@H]4OC(C)(C)[C@H](OC)[C@@H](OC(N)=O)[C@H]4O)c(C)c3oc2=O)c1 [Compound 229] yielded MIC of > 100 µM

CO[C@@H]1[C@@H](OC(N)=O)[C@@H](O)[C@H](Oc2ccc3c(O)c(NC(=O)c4ccc(O)c(C/C=C/C(C)=O)c4)c(=O)oc3c2C)OC1(C)C [Compound 81] yielded MIC of > 100 µM

CO[C@@H]1[C@H]2OP(=O)(c3ccccc3)O[C@H]2[C@H](Oc2ccc3c(O)c(NC(=O)c4ccc(O)c(CC=C(C)C)c4)c(=O)oc3c2C)OC1(C)C (stereo partly drawn) [Compound 208] yielded MIC of > 100 µM

CO[C@@H]1[C@@H](OC(N)=O)[C@@H](O)[C@H](Oc2ccc3c(O)c(NC(=O)c4cccc(-c5ccncc5)c4)c(=O)oc3c2C)OC1(C)C [Compound 32] yielded MIC of > 100 µM

CO[C@@H]1[C@@H](OC(N)=O)[C@@H](O)[C@H](Oc2ccc3c(O)c(NC(=O)c4cccc(Oc5ccccc5C)c4)c(=O)oc3c2C)OC1(C)C [Compound 220] yielded MIC of > 100 µM

====

tested on: S. aureus MW2; assay: Minimal inhibitory concentration, S. aureus MW2; type: cell-based; conditions: Staphylococcus aureus, MRSA, 16 h, 16 hour minimal inhibitory concentration at 37° C.; read-out: MIC (μM) S. aureus MW2 (MRSA)
Measurement Label: MIC (µM)
Give a bare numeral; the unit µM is implied.

CO[C@@H]1[C@@H](OC(N)=O)[C@@H](O)[C@H](Oc2ccc3c(O)c(NC(=O)c4cccc(-c5ccc(F)c(F)c5)c4)c(=O)oc3c2C)OC1(C)C yielded MIC of 5

CO[C@@H]1[C@@H](OC(N)=O)[C@@H](O)[C@H](Oc2ccc3c(O)c(NC(=O)c4cccc(Oc5ccccc5)c4)c(=O)oc3c2C)OC1(C)C yielded MIC of 20

CO[C@@H]1[C@@H](OC(N)=O)[C@@H](O)[C@H](Oc2ccc3c(O)c(NC(=O)c4cccc(-c5cccc(C)c5)c4)c(=O)oc3c2C)OC1(C)C yielded MIC of 1

====

System: E. coli MC4100
Assay: Minimal inhibitory concentration, E. coli MC4100
Assay type: cell-based
Conditions: 16 hour minimal inhibitory concentration at 37° C.; read-out: MIC (μM) E. coli MC4100 ara+
Method: General Procedure for Determination of Minimal Inhibitory Concentrations Overnight cultures (5 mL) of bacterial strains were grown in LB media or TSA media (for S. aureus) at 37° C. and with shaking at 220 rpm until saturation. The overnight culture was diluted serially 1:100 (50 μL in 5 mL sterile media) and then 1:100 (250 μL in 25 mL sterile media). […] The plate was incubated without shaking in a 37° C. for 16 hours and then read by visible light spectrophotometer (Molecular Devices) at 600 nm. […]
Measurement Label: MIC

CO[C@@H]1[C@@H](O)[C@@H](OC(=O)NC(C)C)[C@H](Oc2ccc3c(O)c(NC(=O)c4ccc(O)c(CC=C(C)C)c4)c(=O)oc3c2C)OC1(C)C yielded MIC of >200 µM

CO[C@@H]1[C@@H](OC(=O)NC2CCCC2)[C@@H](O)[C@H](Oc2ccc3c(O)c(NC(=O)c4ccc(O)c(CC=C(C)C)c4)c(=O)oc3c2C)OC1(C)C yielded MIC of >200 µM

CO[C@@H]1[C@@H](OC(N)=O)[C@@H](O)[C@H](Oc2ccc3c(O)c(NC(=O)c4ccc5c(ccn5C)c4)c(=O)oc3c2C)OC1(C)C yielded MIC of >200 µM

====

Exercise: for every item that follows, state its recorded MIC.
system: S. aureus MW2; assay: Minimal inhibitory concentration, S. aureus MW2; format: cell-based; conditions: 16 hour minimal inhibitory concentration at 37° C.; read-out: MIC (μM) S. aureus MW2 (MRSA)
Give a bare numeral; the unit µM is implied.

CO[C@@H]1[C@@H](OC(N)=O)[C@@H](O)[C@H](Oc2ccc3c(O)c(NC(=O)c4cccc(-c5ccc(C)cc5)c4)c(=O)oc3c2C)OC1(C)C yielded MIC of 3

CO[C@@H]1[C@@H](OC(N)=O)[C@@H](O)[C@H](Oc2ccc3c(O)c(NC(=O)c4ccc(O)c(-c5ccc6ccccc6c5)c4)c(=O)oc3c2C)OC1(C)C yielded MIC of 0.09

CO[C@@H]1[C@@H](OC(N)=O)[C@@H](O)[C@H](Oc2ccc3c(O)c(NC(=O)c4cccc(C5CCCCC5)c4)c(=O)oc3c2C)OC1(C)C yielded MIC of 3

====

system: S. aureus MW2; experiment: Minimal inhibitory concentration, S. aureus MW2; format: cell-based; details: Staphylococcus aureus, MRSA, 16 h, 16 hour minimal inhibitory concentration at 37° C.; read-out: MIC (μM) S. aureus MW2 (MRSA)
Exercise: for every item that follows, state its recorded MIC.

CCCOCCOCC#Cc1ccc(C(=O)Nc2c(O)c3ccc(O[C@@H]4OC(C)(C)[C@H](OC)[C@@H](OC(N)=O)[C@H]4O)c(C)c3oc2=O)cc1 yielded MIC of > 100 µM

C=CCOc1c(NC(=O)c2ccc(O)c(CC=C(C)C)c2)c(=O)oc2c(C)c(O[C@@H]3OC(C)(C)[C@H](OC)[C@@H](OC(N)=O)[C@H]3O)ccc12 yielded MIC of > 100 µM

CO[C@@H]1[C@@H](OC(N)=O)[C@@H](O)[C@H](Oc2ccc3c(O)c(NC(=O)c4ccc(N=[N+]=[N-])cc4)c(=O)oc3c2C)OC1(C)C yielded MIC of > 100 µM

====

system: S. aureus RN4220; experiment: Minimal inhibitory concentration, S. aureus RN4220; type: cell-based; conditions: 16 hour minimal inhibitory concentration at 37° C.; read-out: MIC (μM) S. aureus RN4220
Measurement Label: log10 MIC (log10 of the value in µM)
Scale type: logarithmic (base 10). Underlying MIC unit: µM.

CO[C@@H]1[C@@H](OC(N)=O)[C@@H](O)[C@H](Oc2ccc3c(O)c(NC(=O)c4ccc(N)c(-c5ccccc5)c4)c(=O)oc3c2C)OC1(C)C [Compound 86] yielded log10 MIC of 1.30

CO[C@@H]1[C@@H](OC(N)=O)[C@@H](O)[C@H](Oc2ccc3c(O)c(NC(=O)c4cc(-c5ccccc5)cc(-c5ccccc5)c4)c(=O)oc3c2C)OC1(C)C [Compound 75] yielded log10 MIC of 1.26

CO[C@@H]1[C@@H](OC(N)=O)[C@@H](O)[C@H](Oc2ccc3c(O)c(NC(=O)c4cccc(C5CCCCC5)c4)c(=O)oc3c2C)OC1(C)C [Compound 62] yielded log10 MIC of 0.70

CO[C@@H]1[C@@H](O)[C@@H](OC(=O)c2cccn2C)[C@H](Oc2ccc3c(O)c(NC(=O)c4ccc(O)c(CC=C(C)C)c4)c(=O)oc3c2C)OC1(C)C [Compound 114] yielded log10 MIC of 1.87

CO[C@@H]1[C@@H](OC(N)=O)[C@@H](O)[C@H](Oc2ccc3c(O)c(NC(=O)c4cccc(-c5ccccc5C(F)(F)F)c4)c(=O)oc3c2C)OC1(C)C [Compound 60] yielded log10 MIC of 0.95

CO[C@@H]1[C@@H](OC(N)=O)[C@@H](O)[C@H](Oc2ccc3c(O)c(NC(=O)c4cccc(Cc5ccccc5)c4)c(=O)oc3c2C)OC1(C)C [Compound 69] yielded log10 MIC of 0.70

CO[C@@H]1[C@@H](OC(N)=O)[C@@H](O)[C@H](Oc2ccc3c(O)c(NC(=O)c4cc(-c5ccccc5)ccc4N)c(=O)oc3c2C)OC1(C)C [Compound 85] yielded log10 MIC of 0.70

CO[C@@H]1[C@@H](OC(N)=O)[C@@H](O)[C@H](Oc2ccc3c(O)c(NC(=O)c4cc(N)cc(-c5ccccc5)c4)c(=O)oc3c2C)OC1(C)C [Compound 89] yielded log10 MIC of 1.30

COc1cccc(-c2cccc(C(=O)Nc3c(O)c4ccc(O[C@@H]5OC(C)(C)[C@H](OC)[C@@H](OC(N)=O)[C@H]5O)c(C)c4oc3=O)c2)c1 [Compound 103] yielded log10 MIC of 1.56

CO[C@@H]1[C@@H](OC(N)=O)[C@@H](O)[C@H](Oc2ccc3c(O)c(NC(=O)c4cccc(-c5cccc(OC(F)(F)F)c5)c4)c(=O)oc3c2C)OC1(C)C [Compound 58] yielded log10 MIC of -0.44

CO[C@@H]1[C@@H](OC(N)=O)[C@@H](O)[C@H](Oc2ccc3c(O)c(NC(=O)c4cccc(-c5ccc(OC(F)(F)F)cc5)c4)c(=O)oc3c2C)OC1(C)C [Compound 57] yielded log10 MIC of 0.16

CO[C@@H]1[C@@H](OC(N)=O)[C@@H](O)[C@H](Oc2ccc3c(O)c(NC(=O)c4cc(-c5ccc6ccccc6c5)cc(O)c4O)c(=O)oc3c2C)OC1(C)C [Compound 98] yielded log10 MIC of 1.26

CO[C@@H]1[C@@H](OC(N)=O)[C@@H](O)[C@H](Oc2ccc3c(O)c(NC(=O)c4cccc(-c5ccc([N+](=O)[O-])cc5)c4)c(=O)oc3c2C)OC1(C)C [Compound 24] yielded log10 MIC of 0.70
